Below, each entry is listed with its recorded SI (CC50/EC50).
# Test system: A/Roma-ISS/02/08 H1N1
# SETTINGS: A/Roma-ISS/02/08 H1N1; MDCK cells; CC50 >25 μM
Residues, ends and D or L forms follow the SMILES beside them.

1. C[C@@H](O)[C@H](NC(=O)[C@H](CCC(=O)O)NC(=O)[C@H](CO)NC(=O)[C@@H](N)CCCCN)C(=O)N[C@@H](CCCCN)C(=O)N[C@@H](CC(N)=O)C(=O)O [Peptide 8, KSETKN] (H-KSETKN-OH; N-terminus and C-terminus assumed); >5.10^7
2. CC(C)C[C@H](NC(=O)[C@H](CO)NC(=O)[C@H](CO)NC(=O)[C@H](Cc1c[nH]cn1)NC(=O)[C@H](CCCCN)NC(=O)[C@@H](N)CO)C(=O)N[C@@H](CC(=O)O)C(=O)N[C@@H](CS)C(=O)N[C@H](C(=O)N[C@@H](CC(C)C)C(=O)N[C@@H](CCCNC(=N)N)C(=O)N1CCC[C@H]1C(=O)O)C(C)C [Peptide 1, SKHSSLDCVLRP] (H-SKHSSLDCVLRP-OH); >6.25.10^6
3. C[C@H](NC(=O)[C@H](Cc1c[nH]c2ccccc12)NC(=O)[C@H](CC(=O)O)NC(=O)[C@H](C)NC(=O)[C@@H](NC(=O)[C@H](CO)NC(=O)[C@H](CCC(=O)O)NC(=O)CNC(=O)[C@H](CC(N)=O)NC(=O)[C@@H](N)[C@@H](C)O)[C@@H](C)O)C(=O)N[C@@H](CCCCN)C(=O)N[C@@H](CC(N)=O)C(N)=O [Peptide 6, TNGESTADWAKN] (H-TNGESTADWAKN-NH2; N-terminus and C-terminus assumed); >6.25.10^4

Consider the record given below.
Report SI (CC50/EC50) for CC(C)C[C@H](NC(=O)[C@@H](NC(=O)[C@H](CS)NC(=O)[C@H](CC(=O)O)NC(=O)[C@H](CC(C)C)NC(=O)[C@@H](N)CO)C(C)C)C(=O)N[C@@H](CCCNC(=N)N)C(=O)N1CCC[C@H]1C(N)=O [Peptide 13, SLDCVLRP] (H-SLDCVLRP-NH2) please.
>8.33.10^7

* * *

# System: A/Parma/24/09 H1N1
# SETTINGS: A/Parma/24/09 H1N1; MDCK cells; CC50 >25 μM
Residues, ends and D or L forms follow the SMILES beside them.
Form field: SI (CC50/EC50) (one value per entry).

1. CC(C)C[C@H](NC(=O)[C@H](CO)NC(=O)[C@H](CO)NC(=O)[C@H](Cc1c[nH]cn1)NC(=O)[C@H](CCCCN)NC(=O)[C@@H](N)CO)C(=O)N[C@@H](CC(=O)O)C(=O)N[C@@H](CS)C(=O)O [Peptide 16, SKHSSLDC] (H-SKHSSLDC-OH; N-terminus and C-terminus assumed); >2.5.10^8
2. CC(C)C[C@H](NC(=O)[C@@H](NC(=O)[C@H](CS)NC(=O)[C@H](CC(=O)O)NC(=O)[C@H](CC(C)C)NC(=O)[C@@H](N)CO)C(C)C)C(=O)N[C@@H](CCCNC(=N)N)C(=O)N1CCC[C@H]1C(N)=O [Peptide 13, SLDCVLRP] (H-SLDCVLRP-NH2); >1.10^7
3. CC(=O)N[C@@H](CO)C(=O)N[C@@H](CC(C)C)C(=O)N[C@@H](CC(=O)O)C(=O)N[C@@H](CS)C(N)=O [Peptide 15, SLDC] (Ac-SLDC-NH2); >5.4.10^6

May I ask what SI (CC50/EC50) has been recorded for C[C@H](NC(=O)[C@H](Cc1c[nH]c2ccccc12)NC(=O)[C@H](CC(=O)O)NC(=O)[C@H](C)NC(=O)[C@@H](NC(=O)[C@H](CO)NC(=O)[C@H](CCC(=O)O)NC(=O)CNC(=O)[C@H](CC(N)=O)NC(=O)[C@@H](N)[C@@H](C)O)[C@@H](C)O)C(=O)N[C@@H](CCCCN)C(=O)N[C@@H](CC(N)=O)C(N)=O [Peptide 6, TNGESTADWAKN] (H-TNGESTADWAKN-NH2; N-terminus and C-terminus assumed) ?
>5.10^2
